target.or.test.system: KRas G12S (Homo sapiens, UniProt P01116, G12S)
Construct: Biotinylated KRas (corresponding to amino acids 1-169, produced at Accelegan Inc.); biotin (biotinylated); purchased Accelegan Inc
Sequence (P01116 1-169 isoform P01116-2 G12S): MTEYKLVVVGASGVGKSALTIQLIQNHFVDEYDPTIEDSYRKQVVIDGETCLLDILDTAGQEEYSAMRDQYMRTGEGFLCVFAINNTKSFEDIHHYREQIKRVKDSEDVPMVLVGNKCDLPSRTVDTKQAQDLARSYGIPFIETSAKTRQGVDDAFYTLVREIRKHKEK
run.description: KRas binding assay, TR-FRET displacement of Cy5 labelled tracer
condition.summary: 60-minute incubation at room temperature, 1% DMSO, pH 7.5
readout.label: IC50 (nM)

* CCc1c(F)ccc2cc(O)cc(-c3ncc4c(N5CC6CC(C(=O)n7ccc(C)n7)C6C5)nc(OC[C@@]56CCCN5C[C@H](F)C6)nc4c3F)c12 (stereo partly drawn) [Example 98] | 20
* CCc1c(F)ccc2cc(O)cc(-c3ncc4c(N5CCC(C(=O)n6cc(OC)cn6)CC5)nc(OC[C@@]56CCCN5C[C@H](F)C6)nc4c3F)c12 [Example 294] | 22

P. CCc1c(F)ccc2cc(O)cc(-c3ncc4c(N5CC[C@@H]6[C@H](C5)[C@@H]6C(=O)n5ccc(C)n5)nc(OC[C@@]56CCCN5C[C@H](F)C6)nc4c3F)c12 [Example 157]
Q. CN(CCCC(=O)Oc1ccc(F)cc1)c1nc(OC[C@@]23CCCN2C[C@H](F)C3)nc2c(F)c(-c3ccc(F)c4sc(N)c(C#N)c34)c(Cl)cc12 [Example 270]
R. CCc1c(F)ccc2cc(O)cc(-c3ncc4c(N5CC6CC5CC6C(=O)n5ccc(C)n5)nc(OC[C@@]56CCCN5C[C@H](F)C6)nc4c3F)c12 (stereo partly drawn) [Example 90]
[in] Hey, can you sort those compounds up there by IC50, smallest first? Reply with the labels, ordered as the question asks.
[out] Q, P, R
